Value source: patent US8735553

// values below are reported IL-2 release in HuT78/P3Z, IC50
# tested-target: P3Z chimeric PD-1 receptor (human)
# Sequence (chain, as listed by the source mutant limits assumed): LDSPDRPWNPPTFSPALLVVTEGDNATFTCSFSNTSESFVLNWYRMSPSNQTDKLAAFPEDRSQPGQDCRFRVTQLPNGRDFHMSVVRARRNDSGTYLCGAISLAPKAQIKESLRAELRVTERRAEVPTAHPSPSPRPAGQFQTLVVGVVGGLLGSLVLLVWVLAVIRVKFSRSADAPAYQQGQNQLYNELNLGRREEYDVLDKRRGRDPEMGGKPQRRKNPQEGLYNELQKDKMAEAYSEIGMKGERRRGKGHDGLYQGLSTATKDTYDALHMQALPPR
# method: cell-based or functional assay
Quick note: give the figure in µg/mL, leave out the unit.

// worked examples, IL-2 release in HuT78/P3Z, IC50 included
1) ch326 (antibody, human IgG2, V domains shown, not shown: a dimerising Fc or GST, domain: Ig kappa C-region; Murine VH and Vκ of mu326 on human IgG2 / kappa) VH: QIQLVQSGPELKKPGETVKISCKASGYTFTNYGMNWVKQAPGKGLKWMGWINNNNGEPTYAEEFKGRFAFSLETSASTAYLQINNLKNEDTATYFCARDVMDYWGQGTSVTVSS VL: DIVLTQSPASLAVSLGQRATISCRASESVDNYGYSFMHWYQQKPGQPPQLLIYRASNLESGIPARFSGSGSRTGFTLTINPVEADDVATYYCQQSKEYPTFGGGTKLEVKR	0.074
2) hu326-2 S84N (antibody, V domains shown, mAb; constant regions not restated (hu326-1 is IgG2 / kappa); Back mutation to murine) VH: QVQLVQSGSELKKPGASVKVSCKASGYTFTNYGMNWVRQAPGQGLEWMGWINNNNGEPTYAQGFRGRFVFSLDTSASTAYLQINSLKTEDTAVYFCARDVMDYWGQGTTVTVSS VL: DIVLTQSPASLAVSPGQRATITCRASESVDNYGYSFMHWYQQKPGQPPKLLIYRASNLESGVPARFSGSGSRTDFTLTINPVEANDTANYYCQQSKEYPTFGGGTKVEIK	0.06
3) hu326-2 A16E (antibody, V domains shown, mAb; constant regions not restated (hu326-1 is IgG2 / kappa); Back mutation to murine) VH: QVQLVQSGSELKKPGESVKVSCKASGYTFTNYGMNWVRQAPGQGLEWMGWINNNNGEPTYAQGFRGRFVFSLDTSASTAYLQISSLKTEDTAVYFCARDVMDYWGQGTTVTVSS VL: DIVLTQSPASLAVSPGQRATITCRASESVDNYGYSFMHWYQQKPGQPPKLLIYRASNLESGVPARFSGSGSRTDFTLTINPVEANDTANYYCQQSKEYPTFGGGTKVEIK	0.078

Form field IL-2 release in HuT78/P3Z, IC50, entry hu326-2 E46K (antibody, V domains shown, mAb; constant regions not restated (hu326-1 is IgG2 / kappa); Back mutation to murine) VH: QVQLVQSGSELKKPGASVKVSCKASGYTFTNYGMNWVRQAPGQGLKWMGWINNNNGEPTYAQGFRGRFVFSLDTSASTAYLQISSLKTEDTAVYFCARDVMDYWGQGTTVTVSS VL: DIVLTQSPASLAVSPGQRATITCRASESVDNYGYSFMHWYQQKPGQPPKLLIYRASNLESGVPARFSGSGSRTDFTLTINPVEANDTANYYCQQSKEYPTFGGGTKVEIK : 0.079

Note to self: IL-2 release in HuT78/P3Z, IC50 recorded for hu326-2 G63D (antibody, V domains shown, mAb; constant regions not restated (hu326-1 is IgG2 / kappa); Back mutation to murine) VH: QVQLVQSGSELKKPGASVKVSCKASGYTFTNYGMNWVRQAPGQGLEWMGWINNNNGEPTYAQDFRGRFVFSLDTSASTAYLQISSLKTEDTAVYFCARDVMDYWGQGTTVTVSS VL: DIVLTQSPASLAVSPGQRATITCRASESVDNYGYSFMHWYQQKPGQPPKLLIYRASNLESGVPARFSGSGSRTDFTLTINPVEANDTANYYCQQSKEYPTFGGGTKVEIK was 0.064
